Overview of recorded ΔΔG for various compounds
SYSTEM_UNDER_TEST: E35D↑G↑S mutant HIV-1 subtype C protease (Human immunodeficiency virus type 1 group M subtype C, UniProt Q994Q3, D118E/E93D/I94G/INS93GS)
EXPERIMENTAL_PROTOCOL: biochemical
MEASUREMENT_CONDITIONS: mutant-wild type

SMILES_STRUCTURE	ΔΔG, kcal/mol
Cc1cccc(C)c1OCC(=O)N[C@@H](Cc1ccccc1)[C@@H](O)C[C@H](Cc1ccccc1)NC(=O)[C@H](C(C)C)N1CCCNC1=O	1.6
CC(C)(C)NC(=O)[C@@H]1C[C@@H]2CCCC[C@@H]2CN1C[C@@H](O)[C@H](Cc1ccccc1)NC(=O)[C@H](CC(N)=O)NC(=O)c1ccc2ccccc2n1	3.3
CCC[C@@]1(CCc2ccccc2)CC(O)=C([C@H](CC)c2cccc(NS(=O)(=O)c3ccc(C(F)(F)F)cn3)c2)C(=O)O1	3.7
CC(C)CN(C[C@@H](O)[C@H](Cc1ccccc1)NC(=O)O[C@H]1CO[C@H]2OCC[C@H]21)S(=O)(=O)c1ccc(N)cc1	3.9
Cc1c(O)cccc1C(=O)N[C@@H](CSc1ccccc1)[C@H](O)CN1C[C@H]2CCCC[C@H]2C[C@H]1C(=O)NC(C)(C)C	4.1
CC(C)(C)NC(=O)[C@@H]1CN(Cc2cccnc2)CCN1C[C@@H](O)C[C@@H](Cc1ccccc1)C(=O)N[C@H]1c2ccccc2C[C@H]1O	1.9
COC(=O)N[C@H](C(=O)N[C@@H](Cc1ccccc1)[C@@H](O)CN(Cc1ccc(-c2ccccn2)cc1)NC(=O)[C@@H](NC(=O)OC)C(C)(C)C)C(C)(C)C	4.6
